test: Half life in Sprague-Dawley rat at 5 mg/kg, iv measured upto 24 hrs by LC-MS/MS analysis; type: ADME, organism-based; conditions: in vivo
property: half-life (h)
// return numeric value only (unit: h, not printed)

// query Write down half-life measured for item CCN1CCN(c2nc(Nc3cccc(NC(=O)C#Cc4ccc(C)cc4)c3)c3ncn(CC)c3n2)CC1.Cl.Cl
// result 7.2

---

assay: Cytotoxicity against human erythrocytes assessed as cell viability at 0.4 uM after 3 days alamar blue assay relative to control; assay type: cell-based, Erythrocyte; conditions: time 3 day, read-out: Activity
property: viability at 72 h, 0.4 µM (%)
The response must be a number in % with no trailing unit.

// query Identify measured viability at 72 h, 0.4 µM associated with CCn1cnc2c(Nc3cccc(NC(=O)C#Cc4ccc(C)cc4)c3)nc(OCCN3CCOCC3)nc21
// result 78

Source of measurements: ChEMBL document CHEMBL4732077
